Target: SARS-CoV-2 nucleocapsid (N) protein, wild type (SARS-CoV-2 (wild type), UniProt P0DTC9 1-419)
Protocol Description: BLI; aptamer on streptavidin sensor, PBST; BLI ([…], DPBS + 0.5 mM MgCl2 + 1 mM CaCl2, pH 7.4; […] (PBST)
Cond: protein: commercial; tags: His; chain copies: 2
Endpoint Label: pKd
Formally, pKd is defined as -log10 of the concentration c, with c in mol/L.

{"columns": ["Binder", "Endpoint Label", "Recorded Result"],
 "data": [
  ["CAGCGTCACGTGTTGTTCCCCATTGTACTGATTCGTCGTGGCAT (ssDNA) [biotinylated tNSP3]", "pKd", 8.54]
]}

Reported pKd, binder biotinylated tNSP2 (ssDNA) DNA: CTGACTGTAACCACGTATTGCGTTCCAGTCCCTATGACCAACGTCACAATAAGTCGCATAGGTA : ____
8.35

Reported pKd, binder TAACCACGGCGCAAGCCGGGGTGTACGTGTTATACGTGCGTGTATCGAG (ssDNA) [biotinylated tNSP1] : ____
8.32
